Target: KRAS G12D (Homo sapiens (Human), UniProt P01116+P62937, G12D)
Sequence (P01116 other isoform, or with tags, fused parts or gaps G12D, one chain of several): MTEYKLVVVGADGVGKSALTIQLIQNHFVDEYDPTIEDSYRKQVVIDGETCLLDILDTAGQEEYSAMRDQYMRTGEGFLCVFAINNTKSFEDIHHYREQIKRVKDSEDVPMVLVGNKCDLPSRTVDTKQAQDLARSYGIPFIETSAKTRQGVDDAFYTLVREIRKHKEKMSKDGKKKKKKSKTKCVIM
Test: Ras-Raf disruption/FRET/MOA assay (BRAF RBD, Cyclophilin A)
Assay type: biochemical
Details: KRAS G12D FRET IC50
Procedure: Compound is present in plate wells as a 10-point 3-fold dilution series starting at a final concentration of 30 μM. After incubation at 25° C. for 3 hours, a mixture of Anti-His Eu—W1024 and anti-GST allophycocyanin is then added to assay sample wells at final concentrations of 10 nM and 50 nM, respectively, and the reaction incubated for an additional 1.5 hours. […]
pIC50: −log10 of the molar value.
observable: pIC50

Field request: pIC50 | item: `CCn1c(-c2cccnc2[C@H](C)OC)c2c3cc(ccc31)-c1cc(O)cc(c1)C[C@H](NC(=O)N1CCOCC1)C(=O)N1CCC[C@H](N1)C(=O)OCC(C)(C)C2`
< 5.00

Cool, now `CCn1c(-c2cccnc2[C@H](C)OC)c2c3cc(ccc31)-c1cc(O)cc(c1)C[C@H](NS(=O)(=O)c1ccc(OC)cc1OC)C(=O)N1CCC[C@H](N1)C(=O)OCC(C)(C)C2`
< 5.00

----------
target: NRAS G12C (Homo sapiens (Human), UniProt P01111+P62937, G12C); assay: Ras-Raf disruption/FRET/MOA assay (BRAF RBD, Cyclophilin A); format: biochemical; conditions: read-out: NRAS G12C FRET data IC50
Sequence (P01111 whole entry G12C, one chain of several): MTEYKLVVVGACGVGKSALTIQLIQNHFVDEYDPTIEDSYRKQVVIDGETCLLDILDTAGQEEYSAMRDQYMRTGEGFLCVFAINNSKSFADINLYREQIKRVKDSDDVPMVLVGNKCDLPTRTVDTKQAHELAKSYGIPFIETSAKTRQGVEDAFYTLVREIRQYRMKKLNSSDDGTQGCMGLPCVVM
pIC50: −log10 of the molar value.
observable: pIC50

What does the record list as pIC50 for CCn1c(-c2cccnc2[C@H](C)OC)c2c3cc(ccc31)-c1cc(O)cc(c1)C[C@H](NC(=O)[C@H](C(C)C)N(C)C(=O)C1CN3CCCN1CC3)C(=O)N1CCC[C@H](N1)C(=O)OCC(C)(C)C2 (stereo partly drawn) [Compound A404] ?
6.00 to 7.00

Now give it for CCn1c(-c2cccnc2[C@H](C)OC)c2c3cc(ccc31)-c1csc(n1)C[C@H](NC(=O)[C@H](C(C)C)N(C)C(=O)N1CC[C@@]13CCCNC3)C(=O)N1CCC[C@H](N1)C(=O)OCC(C)(C)C2 [Compound A435] too.
6.00 to 7.00

Repeat for the following compound: CCn1c(-c2cccnc2[C@H](C)OC)c2c3cc(ccc31)-c1csc(n1)C[C@H](NC(=O)[C@@H]1CCO1)C(=O)N1CCC[C@H](N1)C(=O)OCC(C)(C)C2 [Compound A359]
6.00 to 7.00

----------
molecular target: KRAS G12S (Homo sapiens (Human), UniProt P01116+P62937, G12S); assay: Ras-Raf disruption/FRET/MOA assay (BRAF RBD, Cyclophilin A); assay type: biochemical; conditions: read-out: KRAS G12S FRET IC50
Sequence (P01116 other isoform, or with tags, fused parts or gaps G12S, one chain of several): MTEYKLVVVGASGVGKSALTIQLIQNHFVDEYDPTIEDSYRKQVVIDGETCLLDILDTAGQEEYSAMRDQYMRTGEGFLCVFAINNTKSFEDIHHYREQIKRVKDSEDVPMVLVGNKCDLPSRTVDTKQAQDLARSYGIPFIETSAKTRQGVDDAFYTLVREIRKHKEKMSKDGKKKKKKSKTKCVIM
Give measured IC50 for each item. Keep answers brief.

Which IC50 value belongs to CCOC1c2nc(cs2)-c2ccc3c(c2)c(c(-c2cc(C4CC5COCC(C4)N5C4CC4)cnc2C(C)OC)n3CC)CC(C)(C)COC(=O)C2CCCN(N2)C(=O)C1NC(=O)C1C(C)C1C (stereo not drawn) ?
0.01 to 0.1 µM

Same read-out for `CCn1c(-c2cccnc2[C@H](C)OC)c2c3cc(ccc31)-c1csc(n1)C[C@H](NC(=O)[C@H](C(C)C)N(C)C(=O)N1CC(C(C)(C)O)C1)C(=O)N1CCC[C@H](N1)C(=O)OCC(C)(C)C2` ?
0.1 to 1 µM

Try this compound next: `CCn1c(-c2cccnc2[C@H](C)OC)c2c3cc(ccc31)-c1csc(n1)C[C@H](NC(=O)[C@H](C(C)C)N(C)C(=O)N1C[C@H]3CCN(C)[C@H]3C1)C(=O)N1CCC[C@H](N1)C(=O)OCC(C)(C)C2`
0.1 to 1 µM

Quick one: `CCn1c(-c2cccnc2[C@H](C)OC)c2c3cc(ccc31)-c1csc(n1)C[C@H](NC(=O)[C@H](C(C)C)N(C)C(=O)N1[C@H](C)COC[C@@H]1C)C(=O)N1CCC[C@H](N1)C(=O)OCC(C)(C)C2`
0.1 to 1 µM

Quick one: `CCn1c(-c2cccnc2[C@H](C)OC)c2c3cc(ccc31)-c1csc(n1)C[C@H](NC(=O)[C@H](C(C)C)N(C)C(=O)N1CCC[C@H](N(C)C)C1)C(=O)N1CCC[C@H](N1)C(=O)OCC(C)(C)C2`
0.1 to 1 µM

Please give the result for `CCn1c(-c2cnccc2COC)c2c3cc(ccc31)-c1cc(O)cc(c1)C[C@H](NC(=O)[C@H](C(C)C)N(C)C(=O)[C@H]1CNC[C@H]1C(F)(F)F)C(=O)N1CCC[C@H](N1)C(=O)OCC(C)(C)C2` too.
0.1 to 1 µM

Same read-out for `CCn1c(-c2cccnc2[C@H](C)OC)c2c3cc(ccc31)-c1cc(O)cc(c1)C[C@H](NC(=O)[C@H](C(C)C)N(C)C(=O)[C@H]1CCN(C3CC3)C1)C(=O)N1CCC[C@H](N1)C(=O)OCC(C)(C)C2` ?
1 to 10 µM

Next record, please: `CCn1c(-c2cccnc2[C@H](C)OC)c2c3cc(ccc31)-c1csc(n1)C[C@H](NC(=O)[C@H](C(C)C)N(C)C(=O)N1CCS(=O)(=O)CC1)C(=O)N1CCC[C@H](N1)C(=O)OCC(C)(C)C2`
0.1 to 1 µM

// repeat for `CCn1c(-c2cnccc2COC)c2c3cc(ccc31)-c1cc(O)cc(c1)C[C@H](NC(=O)[C@H](C(C)C)N(C)c1nccs1)C(=O)N1CCC[C@H](N1)C(=O)OCC(C)(C)C2` and report
1 to 10 µM

Proceed to `CCn1c(-c2cnccc2COC)c2c3cc(ccc31)-c1cc(O)cc(c1)C[C@H](NC(=O)[C@H](C(C)C)N(C)c1ncco1)C(=O)N1CCC[C@H](N1)C(=O)OCC(C)(C)C2`
1 to 10 µM

Now the compound `CCn1c(-c2cccnc2[C@H](C)OC)c2c3cc(ccc31)-c1csc(n1)C[C@H](NC(=O)C1(F)CCC1)C(=O)N1CCC[C@H](N1)C(=O)OCC(C)(C)C2`
0.1 to 1 µM

Also check `CCO[C@@H]1c2nc(cs2)-c2ccc3c(c2)c(c(-c2cc(C4CCN(C5COC5)CC4)cnc2[C@H](C)OC)n3CC)CC(C)(C)COC(=O)[C@@H]2CCCN(N2)C(=O)[C@H]1NC(=O)[C@H]1[C@H](C)[C@@H]1C`
1 to 10 µM

What do you get for `CCn1c(-c2cccnc2[C@H](C)OC)c2c3cc(ccc31)-c1csc(n1)C[C@H](NC(=O)[C@H](C(C)C)N(C)C(=O)N1C[C@@H](C)N(C)C[C@@H]1C)C(=O)N1CCC[C@H](N1)C(=O)OCC(C)(C)C2` ?
1 to 10 µM

Do the same for CCn1c(-c2cccnc2[C@H](C)OC)c2c3cc(ccc31)-c1cc(O)cc(c1)C[C@H](NC(=O)C(C)Cc1ccncc1)C(=O)N1CCC[C@H](N1)C(=O)OCC(C)(C)C2 (stereo partly drawn) please
1 to 10 µM

Same thing, different compound: `CCn1c(-c2cccnc2[C@H](C)OC)c2c3cc(ccc31)-c1csc(n1)C[C@H](NC(=O)[C@H](C(C)C)N(C)C(=O)N1CC([C@@H](C)OC)C1)C(=O)N1CCC[C@H](N1)C(=O)OCC(C)(C)C2`
0.1 to 1 µM

Same lookup for `CCn1c(-c2cccnc2[C@H](C)OC)c2c3cc(ccc31)-c1csc(n1)C[C@H](NC(=O)[C@H](C(C)C)N(C)C(=O)N1CC([C@H](C)COC)C1)C(=O)N1CCC[C@H](N1)C(=O)OCC(C)(C)C2` , please.
0.1 to 1 µM

Moving on to the next compound: `CCn1c(-c2cccnc2[C@H](C)OC)c2c3cc(ccc31)-c1csc(n1)C[C@H](NC(=O)[C@H](C(C)C)N(C)C(=O)N(C)[C@H]1CCCN(C)C1)C(=O)N1CCC[C@H](N1)C(=O)OCC(C)(C)C2`
0.1 to 1 µM

Also `CCn1c(-c2cccnc2[C@H](C)OC)c2c3cc(ccc31)-c1cc(O)cc(c1)C[C@H](NC(=O)[C@H](C(C)C)N(C)C(=O)[C@H]1CCN(C(=O)OC3CC3)C1)C(=O)N1CCC[C@H](N1)C(=O)OCC(C)(C)C2` , if possible.
0.01 to 0.1 µM

----------
molecular target: KRAS G13D (Homo sapiens (Human), UniProt P01116+P62937, G13D); experiment: Ras-Raf disruption/FRET/MOA assay, KRAS G13D; format: biochemical
Sequence (P01116 other isoform, or with tags, fused parts or gaps G13D): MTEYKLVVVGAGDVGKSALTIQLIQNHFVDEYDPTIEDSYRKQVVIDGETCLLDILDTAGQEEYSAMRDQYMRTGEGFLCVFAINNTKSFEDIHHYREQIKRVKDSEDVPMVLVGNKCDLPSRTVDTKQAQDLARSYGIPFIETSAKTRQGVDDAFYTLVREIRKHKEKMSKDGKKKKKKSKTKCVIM
Sequence (P62937 whole entry): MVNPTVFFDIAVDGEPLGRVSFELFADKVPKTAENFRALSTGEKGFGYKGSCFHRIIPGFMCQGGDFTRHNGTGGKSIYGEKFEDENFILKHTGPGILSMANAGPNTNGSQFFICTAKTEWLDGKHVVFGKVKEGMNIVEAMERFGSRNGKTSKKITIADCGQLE
observable: IC50

Please provide the recorded IC50 for `CCn1c(-c2cnccc2COC)c2c3cc(ccc31)-c1cc(O)cc(c1)C[C@H](NC(=O)[C@H](C(C)C)N(C)C(=O)CN(C)C(=O)[C@H]1N[C@@H]1c1ccccc1)C(=O)N1CCC[C@H](N1)C(=O)OCC(C)(C)C2` , tested on KRAS G13D (Homo sapiens (Human), UniProt P01116+P62937, G13D).
10 to 100 nM

# repeat for `CCn1c(-c2cccnc2COC)c2c3cc(ccc31)-c1cc(O)cc(c1)C[C@H](NC(=O)[C@H](C(C)C)N(C)C(=O)CCNC(=O)NCCCl)C(=O)N1CCC[C@H](N1)C(=O)OCC(C)(C)C2`
1000 to 10000 nM

Moving on to the next molecule: `CCn1c(-c2cccnc2[C@H](C)OC)c2c3cc(ccc31)-c1cc(O)cc(c1)C[C@H](NC(=O)[C@H](C(C)C)N(C)C(=O)[C@]13C[C@H]1CCN3C(=O)[C@H]1CN1)C(=O)N1CCC[C@H](N1)C(=O)OCC(C)(C)C2`
100 to 1000 nM

Now the same for `CCn1c(-c2cnccc2COC)c2c3cc(ccc31)-c1cc(O)cc(c1)C[C@H](NC(=O)[C@H](C(C)C)N(C)C(=O)CN(C)C(=O)[C@H]1N[C@H]1C(=O)OC)C(=O)N1CCC[C@H](N1)C(=O)OCC(C)(C)C2`
100 to 1000 nM

Let us now turn to `CCn1c(-c2cccnc2[C@H](C)OC)c2c3cc(ccc31)-c1cc(O)cc(c1)C[C@H](NC(=O)[C@H](C(C)C)N(C)C(=O)[C@@]1(C)CCCN1C(=O)[C@@H]1CN1)C(=O)N1CCC[C@H](N1)C(=O)OCC(C)(C)C2`
10 to 100 nM

One more molecule: `CCn1c(-c2cnccc2COC)c2c3cc(ccc31)-c1cc(O)cc(c1)C[C@H](NC(=O)[C@H](C(C)C)N(C)C(=O)CN(C)C(=O)[C@@H]1N[C@@H]1C)C(=O)N1CCC[C@H](N1)C(=O)OCC(C)(C)C2`
100 to 1000 nM

Follow-up item: `CCn1c(-c2cnccc2COC)c2c3cc(ccc31)-c1cc(O)cc(c1)C[C@H](NC(=O)[C@H](C(C)C)N(C)C(=O)CN(C)C(=O)[C@@H]1N[C@@H]1C1CC1)C(=O)N1CCC[C@H](N1)C(=O)OCC(C)(C)C2`
100 to 1000 nM

// next record `CCn1c(-c2cnccc2COC)c2c3cc(ccc31)-c1cc(O)cc(c1)C[C@H](NC(=O)[C@H](C(C)C)N(C)C(=O)CN(C)C(=O)[C@@H]1N[C@H]1c1ccccc1)C(=O)N1CCC[C@H](N1)C(=O)OCC(C)(C)C2`
100 to 1000 nM

Another molecule to look at: `CCn1c(-c2cccnc2[C@H](C)OC)c2c3cc(ccc31)-c1cc(O)cc(c1)C[C@H](NC(=O)[C@H](C(C)C)N(C)C(=O)[C@]1(C)CCCN1C(=O)[C@H]1CN1)C(=O)N1CCC[C@H](N1)C(=O)OCC(C)(C)C2`
100 to 1000 nM

// next record `CCn1c(-c2cnccc2COC)c2c3cc(ccc31)-c1cc(O)cc(c1)C[C@H](NC(=O)[C@H](C(C)C)N(C)C(=O)CN(C)C(=O)[C@H]1N[C@H]1c1ccc(OC)cc1)C(=O)N1CCC[C@H](N1)C(=O)OCC(C)(C)C2`
100 to 1000 nM

Further, for `CCn1c(-c2cccnc2[C@H](C)OC)c2c3cc(ccc31)-c1cc(O)cc(c1)C[C@H](NC(=O)[C@H](C(C)C)N(C)C(=O)[C@@H]1CO[C@H](C)CN1C(=O)[C@H]1CN1)C(=O)N1CCC[C@H](N1)C(=O)OCC(C)(C)C2` ?
10 to 100 nM

And then `CCn1c(-c2cnccc2COC)c2c3cc(ccc31)-c1cc(O)cc(c1)C[C@H](NC(=O)[C@H](C(C)C)N(C)C(=O)CN(C)C(=O)[C@@H]1N[C@H]1c1ccc(OC)cc1)C(=O)N1CCC[C@H](N1)C(=O)OCC(C)(C)C2` , what is it?
100 to 1000 nM

Next up: `CCn1c(-c2cnccc2COC)c2c3cc(ccc31)-c1cc(O)cc(c1)C[C@H](NC(=O)[C@H](C(C)C)N(C)C(=O)CN(C)C(=O)[C@H]1N[C@H]1C1CC1)C(=O)N1CCC[C@H](N1)C(=O)OCC(C)(C)C2`
100 to 1000 nM

Another molecule to check: `CCn1c(-c2cccnc2[C@H](C)OC)c2c3cc(ccc31)-c1cc(O)cc(c1)C[C@H](NC(=O)[C@H](C(C)C)N(C)C(=O)[C@@H]1CO[C@H](C)CN1C(=O)[C@@H]1CN1)C(=O)N1CCC[C@H](N1)C(=O)OCC(C)(C)C2`
10 to 100 nM

And then `CCn1c(-c2cccnc2[C@H](C)OC)c2c3cc(ccc31)-c1cc(O)cc(c1)C[C@H](NC(=O)[C@@H](C(C)C)N(C)C(=O)[C@@]1(C)CCCN1C(=O)[C@@H]1CN1)C(=O)N1CCC[C@H](N1)C(=O)OCC(C)(C)C2` , what is it?
100 to 1000 nM

Same for `CCn1c(-c2cccnc2[C@H](C)OC)c2c3cc(ccc31)-c1cc(O)cc(c1)C[C@H](NC(=O)[C@@H](C(C)C)N(C)C(=O)[C@@]1(C)CCCN1C(=O)[C@H]1CN1)C(=O)N1CCC[C@H](N1)C(=O)OCC(C)(C)C2`
1000 to 10000 nM

Do the same for `CCn1c(-c2cnccc2COC)c2c3cc(ccc31)-c1cc(O)cc(c1)C[C@H](NC(=O)[C@H](C(C)C)N(C)C(=O)CN(C)C(=O)[C@H]1N[C@@H]1c1ccc(OC)cc1)C(=O)N1CCC[C@H](N1)C(=O)OCC(C)(C)C2` please
100 to 1000 nM

Quick one: `CCn1c(-c2cccnc2[C@H](C)OC)c2c3cc(ccc31)-c1cc(O)cc(c1)C[C@H](NC(=O)[C@H](C(C)C)N(C)C(=O)[C@@]1(C)CCCN1C(=O)[C@H]1CN1)C(=O)N1CCC[C@H](N1)C(=O)OCC(C)(C)C2`
10 to 100 nM
